# GI50 per record follows
System: SNB-19
TEST_METHOD_NOTES: NCI tumour cell line growth inhibition, 48 h
Activity calls are given as the source filed them. Cut-off read from the data, not from the text of the source: active = GI50 up to about 1.1 µM and inactive = higher.

Consider the worked cases shown below.
CCOc1cc(CC[N+](C)(C)C)c2c(ccc3ccc(OC)c(OC)c32)c1OC    > 100 µM (inactive)
[O-][S+](Cc1ccccn1)c1nc2ccccc2nc1-c1ccccc1 (stereo unspecified)    62.4 µM (inactive)
CC(NC1=NCCO1)c1cccc([N+](=O)[O-])c1 (stereo unspecified)    > 100 µM (inactive)
COc1ccc(CCCN2c3ccccc3Sc3ccccc32)cc1    > 100 µM (inactive)
O=C1/C(=C/c2ccncc2)C(n2cccc2)c2c(Br)sc(Br)c21 (stereo unspecified)    15.5 µM (inactive)

-- ask Look up GI50 for this compound: O=C(O)c1ccc(NC(c2ccccc2)c2ccc3cccnc3c2O)cc1 (stereo unspecified)
-- reply 6.7 µM (inactive)

-- ask Look up GI50 for this compound: CC(C)(C)OC(=O)C1CCC/C1=N/Nc1ccc([N+](=O)[O-])cc1[N+](=O)[O-] (stereo unspecified)
-- reply 41.5 µM (inactive)

-- ask Look up GI50 for this compound: `COc1ccccc1NC(=O)CC(=O)n1nc(-c2ccccc2)c(/N=N/c2ccccc2[N+](=O)[O-])c1-c1ccccc1`
-- reply > 100 µM (inactive)

-- ask Look up GI50 for this compound: CC(C(=O)c1ccc(Cl)cc1)/C(=N/NC(=O)NN)C(=O)Nc1cccc(C(F)(F)F)c1 (stereo unspecified)
-- reply > 100 µM (inactive)

-- ask Look up GI50 for this compound: `COC(=O)c1cc2c3ccccc3n(C(C)=O)c2cn1`
-- reply > 100 µM (inactive)

-- ask Look up GI50 for this compound: COc1cccc2c1C(=O)OC2c1cccc2ccccc12 (stereo unspecified)
-- reply 61.2 µM (inactive)

* * *

Test system: LXFL 529
TEST_METHOD_NOTES: NCI tumour cell line growth inhibition, 48 h
Active and inactive are the calls of the source. Rule as the data show it: active = GI50 up to about 1.1 µM and inactive = higher.
Give your call using only these classes: active, inactive

Solved entries (count: 6):
Cc1cccc(C2SCc3nc4ccccc4n32)c1 (configuration not stated)    inactive
O=C1C=CC(=O)N1Nc1ccc([N+](=O)[O-])cc1[N+](=O)[O-]    inactive
c1ccc2c(NCCCCCCCCNc3c4ccccc4nc4ccccc34)c3ccccc3nc2c1    active
O=C(/C=C/c1cccc([N+](=O)[O-])c1)c1ccc([N+](=O)[O-])cc1    inactive
[O-][S+](Cc1ccccn1)c1nc2ccccc2nc1-c1ccccc1 (configuration not stated)    inactive
C/N=C1\S/C(=N\c2ccc(N(C)C)cc2)N1C    inactive

Attention now turns to another entry.
-- ask Outcome? NC(=O)NC(=O)C1CCC(=O)N1S(=O)(=O)c1ccc(Cl)cc1 (configuration not stated)
-- reply inactive

* * *

# GI50 per record follows
Test system: SK-MEL-2
TEST_METHOD_NOTES: NCI tumour cell line growth inhibition, 48 h
The source made the active and inactive calls. Cut-off read from the data, not from the text of the source: active = GI50 up to about 1.1 µM and inactive = higher.

COc1cc(OC)cc(C(=O)Cc2c(C(=O)c3ccccc3)c3ccccc3n2C(=O)c2ccccc2)c1    20.5 µM (inactive)

-- ask Look up GI50 for this molecule: `N#Cc1cc2c(cc1Cl)Sc1nccn1S2(=O)=O`
-- reply 3.74 µM (inactive)

-- ask Look up GI50 for this molecule: COc1ccc(C2C3COc4ccccc4C3=NN2c2ccccc2)cc1 (stereo unspecified)
-- reply > 100 µM (inactive)

-- ask Look up GI50 for this molecule: `Cn1c(=O)c(NC(=O)C(Cl)(Cl)Cl)nc2ccccc21`
-- reply > 100 µM (inactive)

-- ask Look up GI50 for this molecule: CC(=O)Nc1cc(C(=O)Nc2cc(C(=O)N3CC(CCl)c4c3cc(N)c3ccccc43)nn2C)nn1C (stereo unspecified)
-- reply 0.0731 µM (active)

-- ask Look up GI50 for this molecule: `Clc1nss/c1=N/c1nonc1-c1ccccc1`
-- reply 34.9 µM (inactive)

-- ask Look up GI50 for this molecule: CC1=CC(=O)CCC2(C)C1CC[C@@H]2OC=O (stereo partly specified)
-- reply > 100 µM (inactive)

-- ask Look up GI50 for this molecule: `CC(=O)CC(=O)N1CCSC1=S`
-- reply > 10 µM (inactive)

-- ask Look up GI50 for this molecule: CC(=O)Nc1c(C)cc2c(nc3n2CCC3O)c1[N+](=O)[O-] (stereo unspecified)
-- reply > 100 µM (inactive)

-- ask Look up GI50 for this molecule: `CC/C(CC(=O)CCC(=O)Nc1c(C)cccc1C)=N\NC(=O)NN`
-- reply > 100 µM (inactive)

-- ask Look up GI50 for this molecule: `O=c1ccc(=O)n(-c2ccccc2)[nH]1`
-- reply > 100 µM (inactive)

* * *

System: UACC-62
TEST_METHOD_NOTES: NCI tumour cell line growth inhibition, 48 h
Calls of active or inactive are those of the source. Rule as the data show it: active = GI50 up to about 1.1 µM and inactive = higher. Non-standard residues stand in square brackets, D forms with d. Residues, ends and D or L forms follow the SMILES beside them. ξ: configuration not given here. *: point of attachment. ξHyp = O=C(O)C1CC(O)CN1; Cbz = O=C(OCc1ccccc1)*
Give your call using only these classes: active, inactive

Solved entries (count: 3):
COc1ccc(/C=C(\Cl)c2ccc(OC)cc2)cc1    inactive
Cc1cccc(O)c1-c1nnc(CCCCCCCCc2nnc(-c3c(C)cccc3O)n2N)n1N    inactive
NC(=O)CNC(=O)C1CC(O)CN1C(=O)OCc1ccccc1 (stereo unspecified) (Cbz-[ξHyp]-Gly-NH2)    inactive

Attention now turns to another entry.
-- ask Outcome? O=C1OCC2(CO1)CC1C=CC2C1 (stereo unspecified)
-- reply inactive

* * *

System: OVCAR-5
TEST_METHOD_NOTES: NCI tumour cell line growth inhibition, 48 h
Activity calls are given as the source filed them. Cut-off read from the data, not from the text of the source: active = GI50 up to about 1.1 µM and inactive = higher.
VALUE_KIND: GI50

Cc1ccc(S(=O)(=O)n2c3c(c4ccccc42)CCN2CCC(Br)C[C@@H]32)cc1 (stereo not given in full)    17.3 µM (inactive)
COc1cc(C(C)O)c(S(=O)(=O)CC(C)O)nn1 (stereo not given)    > 100 µM (inactive)
Cc1oc2c(c1C)S(=O)(=O)C(C#N)C(c1ccccc1)N2 (stereo not given)    91.6 µM (inactive)
COc1cc(OC)cc(C(=O)Cc2c(C(=O)c3ccccc3)c3ccccc3n2C(=O)c2ccccc2)c1    > 100 µM (inactive)
Cn1c2ccccc2c(=O)c2cccc(C(=O)NC(CCCNC(=N)N)C(=O)O)c21 (stereo not given)    > 100 µM (inactive)

// moving on: another record for GI50
-- ask Look up GI50 for this compound: `CCSc1cc(=O)n(C)c(=O)n1C`
-- reply > 100 µM (inactive)

* * *

System: LOX IMVI
TEST_METHOD_NOTES: NCI tumour cell line growth inhibition, 48 h
Calls of active or inactive are those of the source. Cut-off read from the data, not from the text of the source: active = GI50 up to about 1.1 µM and inactive = higher.
Give your call using only these classes: active, inactive

-- ask Outcome? `N#Cc1c(Cl)c2cc([N+](=O)[O-])ccc2n2c1nc1ccccc12`
-- reply inactive

-- ask Outcome? `CCOC(C[Se]CC(OCC)OCC)OCC`
-- reply inactive

* * *

# GI50 per record follows
Tested on: SK-MEL-28
TEST_METHOD_NOTES: NCI tumour cell line growth inhibition, 48 h
Calls of active or inactive are those of the source. Rule as the data show it: active = GI50 up to about 1.1 µM and inactive = higher.

O=C1C2=C(c3ccccc31)C(c1cccc(Cl)c1)NC(S)=N2 (stereo not drawn)    > 100 µM (inactive)

-- ask Look up GI50 for this molecule: `CC(=O)Nc1ccc(Cc2ccc3nc(O)cc(C)c3c2)cc1`
-- reply > 100 µM (inactive)

-- ask Look up GI50 for this molecule: `Cc1[nH]c(-c2ccccc2)c(O)c1C(=O)OC12CC3CC(CC(C3)C1)C2`
-- reply 14.7 µM (inactive)

-- ask Look up GI50 for this molecule: `CCOC(=O)CN(Cc1ccccc1)Cc1c(C(=O)c2ccccc2)c2ccccc2n1C(=O)c1ccccc1`
-- reply > 100 µM (inactive)

-- ask Look up GI50 for this molecule: `O=C(Nc1c(-c2nc3ccccc3[nH]2)sc(=S)n1-c1ccccc1)c1ccccc1`
-- reply > 100 µM (inactive)

-- ask Look up GI50 for this molecule: `CCN(CC)CCOC(=O)c1ccc(N)cc1.CCOC(=O)Nc1ccc(S(=O)(=O)OC)cc1.CCOC(=O)Nc1ccc(S(=O)(=O)OC)cc1.Nc1ccc(C(=O)O)c(O)c1`
-- reply > 100 µM (inactive)

-- ask Look up GI50 for this molecule: COc1cc([C@@H]2C3C(=O)c4ccccc4C3[C@@H](c3cc(OC)c(OC)c(OC)c3)C23Cc2ccccc2C3=O)cc(OC)c1OC (stereo partly drawn)
-- reply > 100 µM (inactive)

-- ask Look up GI50 for this molecule: Cc1cccc(N2C(=O)C3ON(C(C(N)=O)c4ccccc4)C(c4c5ccccc5c(Cl)c5ccccc45)C3C2=O)c1C (stereo not drawn)
-- reply 13 µM (inactive)

* * *

System: A549
TEST_METHOD_NOTES: NCI tumour cell line growth inhibition, 48 h
Calls of active or inactive are those of the source. No stated cut-off is given here; in the data, active = GI50 up to about 1.1 µM and inactive = higher.
VALUE_KIND: GI50

Consider the worked cases shown below.
COc1ccc(/C=N/Nc2nc3ccccc3c(=O)n2-c2ccccc2)c(OCc2ccccc2)c1    > 100 µM (inactive)
CC(C)(C)OC(=O)N1C(=O)OC[C@@H]2C=C[C@@H]21    > 100 µM (inactive)
C[P+](C)(C)C    > 100 µM (inactive)
CN(C)N1C(=O)CC2(CCN(CCCC(=O)c3ccc(F)cc3)CC2)C1=O    > 100 µM (inactive)
COC(=O)CC(=O)NCC1=CCC(=O)CC1    > 100 µM (inactive)
NC(=O)NC(=O)C1CCC(=O)N1S(=O)(=O)c1ccc(Cl)cc1 (stereo not drawn)    > 100 µM (inactive)
CCOc1cc(CC[N+](C)(C)C)c2c(ccc3ccc(OC)c(OC)c32)c1OC    > 100 µM (inactive)
[N-]=[N+]=CC(=O)OCC1NC(=O)C(COC(=O)C=[N+]=[N-])NC1=O (stereo not drawn)    > 100 µM (inactive)
CN(C)C1COC2Cc3ccccc3C1O2 (stereo not drawn)    > 100 µM (inactive)
O=C(O)c1ccc2c(c1)CC1(C2)Cc2cc3c(cc2C1=O)CCC3 (stereo not drawn)    69 µM (inactive)

-- ask Look up GI50 for this molecule: `O=C(Nc1c(-c2nc3ccccc3[nH]2)sc(=S)n1-c1ccccc1)c1ccccc1`
-- reply > 100 µM (inactive)

-- ask Look up GI50 for this molecule: [O-][S+](Cc1ccccn1)c1nc2ccccc2nc1-c1ccccc1 (stereo not drawn)
-- reply 47.2 µM (inactive)

-- ask Look up GI50 for this molecule: `CC1=C(C(=O)Nc2ccc([N+](=O)[O-])cc2)C(c2ccco2)C(C(=O)Nc2ccc([N+](=O)[O-])cc2)=C(C)N1`
-- reply 18.1 µM (inactive)
